- measurement-target: Protein cereblon/Wee1-like protein kinase (Homo sapiens) (UniProt P30291+Q96SW2)
- method: PROTAC activity at CRBN/Wee1 in human HeLa S3 cells assessed as induction of Wee1 degradation at 1 uM measured after 24 hrs by Western blot analysis relative to control
- Type: cell-based
observation-type: Activity (%)

Some molecules with known Activity results, for comparison:
Please give measured Activity of the following entry: C=CCn1c(=O)c2cnc(Nc3ccc(N4CCN(CCCC(=O)NCCOCCOCCOCCOCCOCCNc5cccc6c5C(=O)N(C5CCC(=O)NC5=O)C6=O)CC4)cc3)nc2n1-c1cccc(C(C)(C)O)n1 (stereo not drawn)
51

Please give measured Activity of the following entry: C=CCn1c(=O)c2cnc(Nc3ccc(N4CCN(CCCC(=O)NCCOCCOCCOCCNc5cccc6c5C(=O)N(C5CCC(=O)NC5=O)C6=O)CC4)cc3)nc2n1-c1cccc(C(C)(C)O)n1 (stereo not drawn)
59

Please give measured Activity of the following entry: C=CCn1c(=O)c2cnc(Nc3ccc(N4CCN(CCCC(=O)NCCOCCOCCNc5cccc6c5C(=O)N(C5CCC(=O)NC5=O)C6=O)CC4)cc3)nc2n1-c1cccc(C(C)(C)O)n1 (stereo not drawn)
27

Please give measured Activity of the following entry: C=CCn1c(=O)c2cnc(Nc3ccc(N4CCN(CCCC(=O)NCCOCCOCCOCCOCCNc5cccc6c5C(=O)N(C5CCC(=O)NC5=O)C6=O)CC4)cc3)nc2n1-c1cccc(C(C)(C)O)n1 (stereo not drawn)
45

Please give measured Activity of the following entry: C=CCn1c(=O)c2cnc(Nc3ccc(N4CCN(CCCC(=O)NCCCCCCCCCCC(=O)NCCNc5cccc6c5C(=O)N(C5CCC(=O)NC5=O)C6=O)CC4)cc3)nc2n1-c1cccc(C(C)(C)O)n1 (stereo not drawn)
41

a = C=CCn1c(=O)c2cnc(Nc3ccc(N4CCN(CCCC(=O)NCCOCCOCC(=O)NCCNc5cccc6c5C(=O)N(C5CCC(=O)NC5=O)C6=O)CC4)cc3)nc2n1-c1cccc(C(C)(C)O)n1 (stereo not drawn)
b = C=CCn1c(=O)c2cnc(Nc3ccc(N4CCN(CCCC(=O)NCCCCCCNc5cccc6c5C(=O)N(C5CCC(=O)NC5=O)C6=O)CC4)cc3)nc2n1-c1cccc(C(C)(C)O)n1 (stereo not drawn)
c = C=CCn1c(=O)c2cnc(Nc3ccc(N4CCN(CCCC(=O)NCCOCCNc5cccc6c5C(=O)N(C5CCC(=O)NC5=O)C6=O)CC4)cc3)nc2n1-c1cccc(C(C)(C)O)n1 (stereo not drawn)
Sequence the entries by Activity, beginning with the highest number. Could you list the labels in the order requested?
a, c, b
(a: 81%, c: 38%, b: 23%)

###

- measurement-target: Protein cereblon/Wee1-like protein kinase (Homo sapiens) (UniProt P30291+Q96SW2)
- method: PROTAC activity at CRBN/Wee1 in human HeLa S3 cells assessed as induction of Wee1 degradation by measuring reduction in phosphorylation of CDK1 at Tyr15 residue at 1 uM measured after 24 hrs by Western blot analysis relative to control
- Format: cell-based
- Parameters: scale not given: the % may be the effect or the level left
observation-type: Activity (%)

Identify measured Activity obtained with Protein cereblon/Wee1-like protein kinase (Homo sapiens) (UniProt P30291+Q96SW2) for C=CCn1c(=O)c2cnc(Nc3ccc(N4CCN(CCCC(=O)NCCCCCC(=O)NCCNc5cccc6c5C(=O)N(C5CCC(=O)NC5=O)C6=O)CC4)cc3)nc2n1-c1cccc(C(C)(C)O)n1 (stereo not given) .
54

Identify measured Activity obtained with Protein cereblon/Wee1-like protein kinase (Homo sapiens) (UniProt P30291+Q96SW2) for C=CCn1c(=O)c2cnc(Nc3ccc(N4CCN(CCCC(=O)NCCOCCNc5cccc6c5C(=O)N(C5CCC(=O)NC5=O)C6=O)CC4)cc3)nc2n1-c1cccc(C(C)(C)O)n1 (stereo not given) .
41

I = C=CCn1c(=O)c2cnc(Nc3ccc(N4CCN(CCCC(=O)NCCOCCOCCOCCOCCOCCNc5cccc6c5C(=O)N(C5CCC(=O)NC5=O)C6=O)CC4)cc3)nc2n1-c1cccc(C(C)(C)O)n1 (stereo not given)
II = C=CCn1c(=O)c2cnc(Nc3ccc(N4CCN(CCCC(=O)NCCNc5cccc6c5C(=O)N(C5CCC(=O)NC5=O)C6=O)CC4)cc3)nc2n1-c1cccc(C(C)(C)O)n1 (stereo not given)
Kindly identify which of I and II has the larger recorded Activity value. Mark your answer with the label of the selected entry.
I
